subject of test: FAK (Homo sapiens)
Construct: homozygous knock-in of a HiBiT tag (Promega Corporation, Madison, WI) to the C-terminus of the FAK gene in its natural genomic locus; endogenous in cells; host or cells: JHH-4-FAK-HiBiT clone d01 (CRISPR-Cas9 knock-in at the endogenous locus)
Sequence (Q05397 whole entry): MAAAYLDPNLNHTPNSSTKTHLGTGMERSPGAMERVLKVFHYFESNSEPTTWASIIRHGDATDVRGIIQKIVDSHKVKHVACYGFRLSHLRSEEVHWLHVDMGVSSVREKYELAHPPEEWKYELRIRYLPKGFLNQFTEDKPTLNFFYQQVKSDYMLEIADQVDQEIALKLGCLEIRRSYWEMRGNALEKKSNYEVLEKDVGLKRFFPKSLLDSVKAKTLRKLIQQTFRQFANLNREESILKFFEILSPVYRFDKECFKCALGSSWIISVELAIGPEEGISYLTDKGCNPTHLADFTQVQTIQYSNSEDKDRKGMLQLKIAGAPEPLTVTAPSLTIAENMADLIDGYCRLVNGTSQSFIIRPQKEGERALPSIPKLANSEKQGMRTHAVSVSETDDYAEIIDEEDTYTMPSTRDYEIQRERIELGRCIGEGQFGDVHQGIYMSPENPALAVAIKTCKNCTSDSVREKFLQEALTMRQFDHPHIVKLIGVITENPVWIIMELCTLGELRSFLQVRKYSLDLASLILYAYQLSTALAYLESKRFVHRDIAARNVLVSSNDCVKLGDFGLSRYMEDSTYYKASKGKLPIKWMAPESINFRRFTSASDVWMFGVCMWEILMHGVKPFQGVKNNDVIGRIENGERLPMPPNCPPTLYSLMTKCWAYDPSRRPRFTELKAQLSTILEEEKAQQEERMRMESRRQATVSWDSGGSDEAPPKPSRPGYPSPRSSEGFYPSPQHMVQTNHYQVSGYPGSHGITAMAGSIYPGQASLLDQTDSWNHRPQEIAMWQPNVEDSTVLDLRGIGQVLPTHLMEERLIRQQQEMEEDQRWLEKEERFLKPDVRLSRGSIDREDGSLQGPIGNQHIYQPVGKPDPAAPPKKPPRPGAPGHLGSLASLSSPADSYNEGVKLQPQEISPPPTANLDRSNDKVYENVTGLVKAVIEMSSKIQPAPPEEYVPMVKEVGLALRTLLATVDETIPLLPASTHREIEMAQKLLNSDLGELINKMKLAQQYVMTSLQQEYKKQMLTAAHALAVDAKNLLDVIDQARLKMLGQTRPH
procedure text: FAK-HiBiT Degradation Assay
Assay type: cell-based
settings: lower limit of the four parameter fit (value A); Ymax derived using DMSO control; JHH-4-FAK-HiBiT cells, two hours
Below: a set of entries, each annotated with reported FAK HiBiT Ymin.
observed property: FAK HiBiT Ymin

• O=C1CC[C@H](N2Cc3cc(Cn4ccc5c(-c6ncc(C(F)(F)F)cc6Cl)nc(N6CC(F)C6)nc54)ccc3C2=O)C(=O)N1 = 7.63
• Cc1cnc(-c2cc(N3CC(F)C3)nc3c2cnn3Cc2ccc3c(c2)CN(C2CCC(=O)NC2=O)C3=O)nc1 (stereo not shown) = 87.20
• CN1CCN(c2cc(-c3ncc(C(F)(F)F)cc3Cl)c3cnn(Cc4ccc5c(c4)CN([C@H]4CCC(=O)NC4=O)C5=O)c3n2)CC1 = 96.76
• CC(C)(O)c1cnc(-c2cc(N3CC(F)C3)nc3c2cnn3Cc2ccc3c(c2)CN([C@H]2CCC(=O)NC2=O)C3=O)c(Cl)c1 = 40.36
• O=C1CCC(N2Cc3cc(Cn4ncc5c(-c6ncc(C(F)(F)F)cc6Cl)cc(NC6COC6)nc54)ccc3C2=O)C(=O)N1 (stereo not shown) = 89.33
• Cc1nc2c(-c3ncc(C(F)(F)F)cc3Cl)cc(N3CC(F)C3)nc2n1Cc1ccc2c(c1)CN(C1CCC(=O)NC1=O)C2=O (stereo not shown) = 9.84
• O=C1CC[C@H](N2Cc3cc(Cn4ncc5c(-c6ncc(C(F)(F)F)cc6Cl)cc(N6CCOCC6)nc54)ccc3C2=O)C(=O)N1 = 92.07
• CCOc1ccc(Cl)c(-c2cc(N3CC(F)C3)nc3c2cnn3Cc2ccc3c(c2)CN([C@H]2CCC(=O)NC2=O)C3=O)n1 = 73.08
• O=C1CCC(N2Cc3cc(Cn4ncc5c(-c6ncc(C(F)(F)F)cc6F)cc(N6CC(F)C6)nc54)ccc3C2=O)C(=O)N1 (stereo not shown) = 20.64
• CCOc1cnc(-c2cc(N3CC(F)C3)nc3c2cnn3Cc2ccc3c(c2)CN(C2CCC(=O)NC2=O)C3=O)c(CC)c1 (stereo not shown) = 8.00
• O=C1CCC(N2Cc3cc(Cn4ncc5c(-c6ncc(F)cc6Cl)c(F)c(N6CC(F)C6)nc54)ccc3C2=O)C(=O)N1 (stereo not shown) = 8.92
• O=C1CCC(N2Cc3cc(Cn4ncc5c(-c6ccc(C(F)(F)F)cc6Cl)cc(N6CC(F)C6)nc54)ccc3C2=O)C(=O)N1 (stereo not shown) = 8.06
• O=C1CCC(N2Cc3cc(Cn4ncc5c(-c6ncc(Cl)cc6Cl)c(F)c(N6CC(F)C6)nc54)ccc3C2=O)C(=O)N1 (stereo not shown) = 9.05
